Origin of the recorded values: patent US9351974B2

Target Under Test: His-tagged full-length RSK2 (RPS6KA3) (Homo sapiens)
Hi there, I'd appreciate the recorded IC50 for every entry that follows.

Some solved entries appear below for comparison.
# Structure As Smiles, IC50
rows = [
    ("CCOc1ccc(N2C(=O)[C@@H](C)N(C3CCC(F)(F)CC3)c3nc(Nc4ccc5[nH]c(=O)oc5c4)ncc32)cc1C#N", "100 to 1000 nM"),
    ("CCOc1ccc(N2C(=O)[C@@H](C)N(CCC(C)C)c3nc(Nc4cc(F)c5[nH]ncc5c4)ncc32)cc1C#N", "≤ 100 nM"),
    ("CC(C)Oc1ccc(N2C(=O)[C@@H](C)N(C3CCOCC3)c3nc(Nc4cc(F)c5[nH]c(=O)oc5c4)ncc32)cc1C#N", "≤ 100 nM"),
]

Shifting focus to the molecule that follows.
Form: item CC(C)CCn1c(=O)c(=O)n(-c2ccccc2)c2cnc(Nc3ccc4c(c3)CC(=O)N4)nc21 ; test system His-tagged full-length RSK2 (RPS6KA3) (Homo sapiens); IC50: > 1000 nM

====

Target Under Test: His-tagged full-length RSK2 (RPS6KA3) (Homo sapiens, UniProt P51812)
Sequence (P51812 whole entry): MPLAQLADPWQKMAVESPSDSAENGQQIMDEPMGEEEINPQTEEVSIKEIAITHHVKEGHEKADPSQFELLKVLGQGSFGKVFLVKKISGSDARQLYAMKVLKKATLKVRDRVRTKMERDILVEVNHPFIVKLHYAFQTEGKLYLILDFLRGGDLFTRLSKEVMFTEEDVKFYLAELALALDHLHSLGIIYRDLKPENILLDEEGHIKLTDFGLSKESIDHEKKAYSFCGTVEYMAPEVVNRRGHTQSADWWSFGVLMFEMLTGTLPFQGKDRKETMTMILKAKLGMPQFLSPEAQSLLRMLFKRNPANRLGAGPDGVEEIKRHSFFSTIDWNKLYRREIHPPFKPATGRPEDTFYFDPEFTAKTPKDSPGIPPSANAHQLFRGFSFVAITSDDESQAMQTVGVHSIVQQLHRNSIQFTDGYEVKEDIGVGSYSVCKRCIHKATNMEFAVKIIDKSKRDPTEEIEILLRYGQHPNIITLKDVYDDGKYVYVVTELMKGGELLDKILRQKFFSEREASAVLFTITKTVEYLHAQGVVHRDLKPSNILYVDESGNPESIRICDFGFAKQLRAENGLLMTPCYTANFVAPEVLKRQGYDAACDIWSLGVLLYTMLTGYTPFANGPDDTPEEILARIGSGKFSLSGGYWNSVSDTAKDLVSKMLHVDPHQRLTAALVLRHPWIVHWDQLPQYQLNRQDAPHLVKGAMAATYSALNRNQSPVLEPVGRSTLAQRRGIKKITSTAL
pIC50: −log10 of the molar value.
Reported Property: pIC50

# Molecule, Target Under Test, pIC50
rows = [
    ("C[C@@H]1C(=O)N(c2ccc(N3CCOCC3)nc2)c2cnc(Nc3cc(F)c4[nH]ncc4c3)nc2N1C1CCC(C)(C)CC1 [Example 213]", "His-tagged full-length RSK2 (RPS6KA3) (Homo sapiens, UniProt P51812)", "≥ 7.00"),
    ("Cc1c(Nc2ncc3c(n2)N(C2CCCCC2)[C@H](C)C(=O)N3c2cccc(C#N)c2)ccc2[nH]ncc12 [compound 117]", "His-tagged full-length RSK2 (RPS6KA3) (Homo sapiens, UniProt P51812)", "6.00 to 7.00"),
    ("COc1ccc(N2C(=O)[C@@H](C)N(C3CCOCC3)c3nc(Nc4ccc5[nH]nc(F)c5c4)ncc32)cc1OC [compound 187]", "His-tagged full-length RSK2 (RPS6KA3) (Homo sapiens, UniProt P51812)", "≥ 7.00"),
]

Now for the molecule whose pIC50 we want.
Log: His-tagged full-length RSK2 (RPS6KA3) (Homo sapiens, UniProt P51812), molecule C[C@@H]1C(=O)N(c2ccsc2)c2cnc(Nc3ccc4[nH]ncc4c3)nc2N1C1CCCCC1 [Example 57] , pIC50 = ≥ 7.00

====

Below are IC50 values recorded for His-tagged full-length RSK2 (RPS6KA3) (Homo sapiens).

# Compound, Assay Result
measured = [
    ("C[C@@H]1C(=O)N(c2cccc(C#N)c2)c2cnc(Nc3ccc4[nH]ncc4c3F)nc2N1C1CCOCC1 [compound 185]", "≤ 100 nM"),
    ("C[C@@H]1C(=O)N(c2cccnc2)c2cnc(Nc3cc(F)c4[nH]ncc4c3)nc2N1[C@H]1CC[C@@H](C(F)(F)F)CC1 [compound 255]", "≤ 100 nM"),
]

Now consider a different compound.
Value (IC50, His-tagged full-length RSK2 (RPS6KA3) (Homo sapiens)) for record C[C@@H]1C(=O)N(c2cccnc2)c2cnc(Nc3cc(F)c4[nH]ncc4c3)nc2N1[C@H]1CC[C@H](C(F)(F)F)CC1 [compound 256] = ≤ 100 nM

====

Exercise: state measured pIC50 for each of the molecules provided.
Target Under Test: His-tagged full-length RSK2 (RPS6KA3) (Homo sapiens)
pIC50: −log10 of the molar value.

Solved cases (5 shown):
# Molecule, Target Under Test, Assay Result
data = [
    ("Cc1cccc(N2C(=O)[C@@H](C)N(C3CCCCC3)c3nc(Nc4ccc5[nH]ncc5c4)ncc32)c1 [Example 30]", "His-tagged full-length RSK2 (RPS6KA3) (Homo sapiens)", "≥ 7.00"),
    ("COc1ccc(N2C(=O)[C@@H](C)N(C3CCC(F)(F)CC3)c3nc(Nc4ccc5[nH]c(=O)oc5c4)ncc32)cc1C#N [compound 283]", "His-tagged full-length RSK2 (RPS6KA3) (Homo sapiens)", "6.00 to 7.00"),
    ("CC(C)CCN1c2nc(Nc3ccc4[nH]ncc4c3)ncc2N(c2ccccc2)C(=O)[C@@H]1C [Example 17]", "His-tagged full-length RSK2 (RPS6KA3) (Homo sapiens)", "≥ 7.00"),
    ("C[C@@H]1C(=O)N(c2ccc(N3CCCC3)c(C#N)c2)c2cnc(Nc3cc(F)c4[nH]ncc4c3)nc2N1C1CCC(C)(C)CC1 [Example 212]", "His-tagged full-length RSK2 (RPS6KA3) (Homo sapiens)", "≥ 7.00"),
    ("COc1cc(N2C(=O)[C@@H](C)N(C3CCCCC3)c3nc(Nc4ccc5[nH]ncc5c4)ncc32)cc(OC)c1OC [Example 38]", "His-tagged full-length RSK2 (RPS6KA3) (Homo sapiens)", "≥ 7.00"),
]

Report pIC50 for each item below.
1. C[C@@H]1C(=O)N(c2cccc(C#N)c2)c2cnc(Nc3ccccc3)nc2N1C1CCCCC1 [compound 156]
2. COc1ccc(N2C(=O)[C@@H](C)N(CCC(C)C)c3nc(Nc4cc(F)c5[nH]ncc5c4)ncc32)cc1OC [Example 85]

1: 6.00 to 7.00; 2: ≥ 7.00

====

Target Under Test: His-tagged full-length RSK2 (RPS6KA3) (Homo sapiens, UniProt P51812)
Assign IC50 to each entry below.

# Structure As Smiles, Target Under Test, Reported Property, Assay Result
records = [
    ("C[C@@H]1C(=O)N(c2cccc(C#N)c2)c2cnc(Nc3ccc4[nH]ncc4c3Cl)nc2N1C1CCCCC1", "His-tagged full-length RSK2 (RPS6KA3) (Homo sapiens, UniProt P51812)", "IC50", "> 1000 nM"),
    ("CC[C@@H]1C(=O)N(c2ccc(OC)c(F)c2)c2cnc(Nc3cc(F)c4[nH]ncc4c3)nc2N1C1CCCCC1", "His-tagged full-length RSK2 (RPS6KA3) (Homo sapiens, UniProt P51812)", "IC50", "≤ 100 nM"),
]

# ---- query molecule ----
Briefly, IC50 measured for Cc1ccc(N2C(=O)[C@@H](C)N(C3CCCCC3)c3nc(Nc4ccc5[nH]ncc5c4)ncc32)cn1 : ≤ 100 nM
